Listing of entries alongside the reported Kd.
# target.desc: BCL6 BTB domain (biotin-thrombin-BCL6 amino acids 1-129) (Homo sapiens (Human), UniProt P41182)

# compound, Kd, nM
rows = [
    ("CCN1CCN(c2cc(NC(=O)Cn3cc(-c4cc(C(N)=O)c(O)c5c4OCO5)c4c(=O)n5c(nc43)CC(C)C5)c(Cl)c(F)n2)[C@@H](C)C1 (stereo partly drawn)", 1.36),
    ("CC1Cc2nc3c(c(-c4cc(C(N)=O)c(O)c5c4OCO5)cn3CC(=O)Nc3cc(N4CCN(C)C[C@@H]4C)nc(F)c3Cl)c(=O)n2C1 (stereo partly drawn)", 0.77),
    ("CN1CCN(c2cc(NC(=O)Cn3cc(-c4cc(C(N)=O)c(O)c(F)c4F)c4c(=O)n5c(nc43)CCC5)c(Cl)cn2)CC1", 23.2),
    ("C[C@H]1CN(C)CCN1c1cc(NC(=O)Cn2cc(-c3cc(C(N)=O)c(O)c4c3OCO4)c3c(=O)n4c(nc32)CC(C)(C)C4)c(Cl)c(F)n1", 0.87),
    ("C[C@H]1CN(C)CCN1c1cc(NC(=O)Cn2cc(-c3cc(Cl)c(O)c(C(N)=O)c3)c3c(=O)n4c(nc32)CC(C)(C)C4)c(Cl)c(F)n1", 13.4),
    ("C[C@H]1CN(C2COC2)CCN1c1cc(NC(=O)Cn2cc(-c3cc(C(N)=O)c(O)c(F)c3F)c3c(=O)n4c(nc32)CCC4)c(Cl)cn1", 17.6),
]

Values were extracted from patent US11242351B2.
